Experiment: Half life in CD-1 mouse at 2 mg/kg, iv
Assay type: ADME, organism-based
Conditions: in vivo
Classification field: enter yes for half-life values not below 10 h, no for values below it.

CNC(=O)c1cc2c(cc1F)CC1(C2)C(=O)N(c2cnc(C#N)c(C(F)(F)F)c2)C(=S)N1C(C)C (configuration not stated) | yes
CNC(=O)c1cc2c(cc1F)C[C@@]1(C2)C(=O)N(c2ccc(C#N)c(C(F)(F)F)c2)C(=S)N1C(C)C | no

Can CN1C(=S)N(c2cnc(C#N)c(C(F)(F)F)c2)C(=O)C12Cc1ccc(OC3CCNCC3)cc1C2 (configuration not stated) be said to have half-life at or above 10 h? yes

For this molecule, is measured half-life 10 h or higher? CNC(=O)c1cc2c(cc1F)C[C@@]1(C2)C(=O)N(c2cnc(C#N)c(C(F)(F)F)c2)C(=S)N1C(C)C no

Check this molecule for half-life at or above 10 h: CNC(=O)c1cc2c(cc1F)C[C@]1(C2)C(=O)N(c2ccc(C#N)c(C(F)(F)F)c2)C(=S)N1C(C)C yes

Reported half-life at or above 10 h? CNC(=O)c1cc2c(cc1F)C[C@]1(C2)C(=O)N(c2cnc(C#N)c(C(F)(F)F)c2)C(=S)N1C(C)C yes

Test whether the molecule CNC(=O)c1cc2c(cc1F)CC1(C2)C(=O)N(c2ccc(C#N)c(C(F)(F)F)c2)C(=S)N1C(C)C (configuration not stated) records half-life of 10 h or higher. yes

* * *

Experiment: Oral bioavailability in CD-1 mouse at 10 mg/kg
Assay type: ADME, organism-based
Settings: in vivo
Reported bioavailability by item:
The reply should contain only the number, in %.

Reported bioavailability for CNC(=O)c1cc2c(cc1F)C[C@]1(C2)C(=O)N(c2ccc(C#N)c(C(F)(F)F)c2)C(=S)N1C(C)C : what is it? 63

Entry under review: CNC(=O)c1cc2c(cc1F)C[C@@]1(C2)C(=O)N(c2cnc(C#N)c(C(F)(F)F)c2)C(=S)N1C(C)C . Reported bioavailability? 92

Please give the measured bioavailability for this compound: CNC(=O)c1cc2c(cc1F)CC1(C2)C(=O)N(c2ccc(C#N)c(C(F)(F)F)c2)C(=S)N1C(C)C (centres undefined) 102

Please report the recorded bioavailability for CNC(=O)c1cc2c(cc1F)C[C@]1(C2)C(=O)N(c2cnc(C#N)c(C(F)(F)F)c2)C(=S)N1C(C)C . 80

* * *

Reported AUC(0-inf) values for a set of molecules
Experiment: AUC (0 to infinity) in CD-1 mouse at 10 mg/kg, po
Type: ADME, organism-based
Design: time infinity, route oral, dose 10 mg/kg
Conditions: in vivo

Record excerpt, results attached:
CNC(=O)c1cc2c(cc1F)C[C@]1(C2)C(=O)N(c2cnc(C#N)c(C(F)(F)F)c2)C(=S)N1C(C)C | 99400 ng·h/mL
CNC(=O)c1cc2c(cc1F)C[C@@]1(C2)C(=O)N(c2cnc(C#N)c(C(F)(F)F)c2)C(=S)N1C(C)C | 39100 ng·h/mL

Now examine the next entry.
Form field: reported AUC(0-inf) of CNC(=O)c1cc2c(cc1F)C[C@]1(C2)C(=O)N(c2ccc(C#N)c(C(F)(F)F)c2)C(=S)N1C(C)C 104000 ng·h/mL

* * *

Assay: AUC (0 to infinity) in CD-1 mouse at 10 mg/kg, po
Type: ADME, organism-based
Parameters: time infinity, route oral, dose 10 mg/kg
Conditions: in vivo
Each entry below lists one item and its recorded AUC(0-inf) value.

Examples with answers:
CN1C(=S)N(c2cnc(C#N)c(C(F)(F)F)c2)C(=O)C12Cc1ccc(OC3CCNCC3)cc1C2 (centres undefined) | 15200 ng·h/mL
CNC(=O)c1cc2c(cc1F)CC1(C2)C(=O)N(c2cnc(C#N)c(C(F)(F)F)c2)C(=S)N1C(C)C (centres undefined) | 27000 ng·h/mL
CNC(=O)c1cc2c(cc1F)CC1(C2)C(=O)N(c2ccc(C#N)c(C(F)(F)F)c2)C(=S)N1C(C)C (centres undefined) | 107000 ng·h/mL

Given CNC(=O)c1cc2c(cc1F)C[C@@]1(C2)C(=O)N(c2ccc(C#N)c(C(F)(F)F)c2)C(=S)N1C(C)C , state its recorded AUC(0-inf). 50400 ng·h/mL

* * *

Consider the following molecules and their measured remaining at 1 h, 10 µM readings.
Test: Metabolic stability in dog liver microsomes assessed as unchanged parent compound remaining at 10 uM incubated for 60 mins in presence of [13C2,15N-glycine]GSH by LC-MS/MS analysis
Format: ADME, Canis lupus familiaris, Microsome
Details: read-out: Stabilty
Numeric answer only, unit % assumed.

CN1C(=S)N(c2cnc(C#N)c(C(F)(F)F)c2)C(=O)C12Cc1ccc(OC3CCNCC3)cc1C2 (configuration not stated) | 100

Next molecule, please.
Name the recorded remaining at 1 h, 10 µM for CN1C(=S)N(c2cnc(C#N)c(C(F)(F)F)c2)C(=O)C12Cc1ccc(O)cc1C2 (configuration not stated) . 100

* * *

Assay: Cmax in CD-1 mouse at 10 mg/kg, po
Format: ADME, organism-based
Set-up: route oral, dose 10 mg/kg
Details: in vivo
Cmax reference

CNC(=O)c1cc2c(cc1F)C[C@@]1(C2)C(=O)N(c2cnc(C#N)c(C(F)(F)F)c2)C(=S)N1C(C)C | 3.7 µM
CNC(=O)c1cc2c(cc1F)CC1(C2)C(=O)N(c2ccc(C#N)c(C(F)(F)F)c2)C(=S)N1C(C)C (configuration not stated) | 8.85 µM
CNC(=O)c1cc2c(cc1F)C[C@]1(C2)C(=O)N(c2cnc(C#N)c(C(F)(F)F)c2)C(=S)N1C(C)C | 6.1 µM
CNC(=O)c1cc2c(cc1F)C[C@@]1(C2)C(=O)N(c2ccc(C#N)c(C(F)(F)F)c2)C(=S)N1C(C)C | 5.81 µM
CNC(=O)c1cc2c(cc1F)C[C@]1(C2)C(=O)N(c2ccc(C#N)c(C(F)(F)F)c2)C(=S)N1C(C)C | 5.86 µM

# get_value(readout='Cmax', item= CN1C(=S)N(c2cnc(C#N)c(C(F)(F)F)c2)C(=O)C12Cc1ccc(OC3CCNCC3)cc1C2 (configuration not stated) ) 0.92 µM

Cmax for CNC(=O)c1cc2c(cc1F)CC1(C2)C(=O)N(c2cnc(C#N)c(C(F)(F)F)c2)C(=S)N1C(C)C (configuration not stated) ? 3.69 µM

* * *

Listed here are compounds together with their documented bioavailability.
Test: Oral bioavailability in CD-1 mouse at 10 mg/kg
Format: ADME, organism-based
Conditions: in vivo
Write the number in % without appending the unit.

CN1C(=S)N(c2cnc(C#N)c(C(F)(F)F)c2)C(=O)C12Cc1ccc(OC3CCNCC3)cc1C2 (stereo not drawn) | 97
CNC(=O)c1cc2c(cc1F)CC1(C2)C(=O)N(c2cnc(C#N)c(C(F)(F)F)c2)C(=S)N1C(C)C (stereo not drawn) | 61

Sample CNC(=O)c1cc2c(cc1F)C[C@@]1(C2)C(=O)N(c2ccc(C#N)c(C(F)(F)F)c2)C(=S)N1C(C)C — what was its bioavailability? 91

* * *

Experiment: Clearance in CD-1 mouse at 2 mg/kg, iv
Type: ADME, organism-based
Conditions: in vivo
Consider the following molecules and their measured clearance readings.
The answer is to be given in mL/min/kg; state only the numeric part.

CNC(=O)c1cc2c(cc1F)C[C@@]1(C2)C(=O)N(c2ccc(C#N)c(C(F)(F)F)c2)C(=S)N1C(C)C | 3
CNC(=O)c1cc2c(cc1F)C[C@]1(C2)C(=O)N(c2cnc(C#N)c(C(F)(F)F)c2)C(=S)N1C(C)C | 1.3
CNC(=O)c1cc2c(cc1F)C[C@]1(C2)C(=O)N(c2ccc(C#N)c(C(F)(F)F)c2)C(=S)N1C(C)C | 0.9
CNC(=O)c1cc2c(cc1F)CC1(C2)C(=O)N(c2ccc(C#N)c(C(F)(F)F)c2)C(=S)N1C(C)C (configuration not stated) | 1.6
CN1C(=S)N(c2cnc(C#N)c(C(F)(F)F)c2)C(=O)C12Cc1ccc(OC3CCNCC3)cc1C2 (configuration not stated) | 11.5

Any idea what its clearance is? The molecule is CNC(=O)c1cc2c(cc1F)CC1(C2)C(=O)N(c2cnc(C#N)c(C(F)(F)F)c2)C(=S)N1C(C)C (configuration not stated) 3.4

Find the recorded clearance belonging to CNC(=O)c1cc2c(cc1F)C[C@@]1(C2)C(=O)N(c2cnc(C#N)c(C(F)(F)F)c2)C(=S)N1C(C)C and report it. 4

* * *

Assay: Metabolic stability in human liver microsomes assessed as half life
Type: ADME, Microsome
Below: a set of entries, each annotated with reported half-life.

The following molecules have reported results that may help.
CNC(=O)c1cc2c(cc1F)C[C@]1(C2)C(=O)N(c2ccc(C#N)c(C(F)(F)F)c2)C(=S)N1C(C)C | > 3 h
CNC(=O)c1cc2c(cc1F)CC1(C2)C(=O)N(c2ccc(C#N)c(C(F)(F)F)c2)C(=S)N1C(C)C (configuration not stated) | > 3 h
CNC(=O)c1cc2c(cc1F)C[C@]1(C2)C(=O)N(c2cnc(C#N)c(C(F)(F)F)c2)C(=S)N1C(C)C | 2.25 h
CN1C(=S)N(c2cnc(C#N)c(C(F)(F)F)c2)C(=O)C12Cc1ccc(OC3CCNCC3)cc1C2 (configuration not stated) | > 3 h

Return reported half-life; argument: CNC(=O)c1cc2c(cc1F)C[C@@]1(C2)C(=O)N(c2ccc(C#N)c(C(F)(F)F)c2)C(=S)N1C(C)C > 3 h

// returns reported half-life for input CNC(=O)c1cc2c(cc1F)CC1(C2)C(=O)N(c2cnc(C#N)c(C(F)(F)F)c2)C(=S)N1C(C)C (configuration not stated) > 3 h

What value of half-life has been reported for the following molecule? CNC(=O)c1cc2c(cc1F)C[C@@]1(C2)C(=O)N(c2cnc(C#N)c(C(F)(F)F)c2)C(=S)N1C(C)C 1.97 h
